System: cells
Assay: Cellular toxicity of select compounds (% dead cells, CC50)
Assay type: cell-based
Details: 30 μM, 24 h
Classify as follows. Reported Toxicity at 30 μM (% dead cells after 24 h) greater than or equal to 10%: t. Reported Toxicity at 30 μM (% dead cells after 24 h) below: f.

compound | labelValue
O=C(Nc1ccccc1C(=O)Nc1ccccc1C(=O)O)c1ccccc1F [Compound 17h] | t
COc1ccc(NC(=O)c2ccccc2F)c(C(=O)Nc2ccccc2C(=O)O)c1 [Compound 35i] | t
O=C(Nc1cc(F)c(F)cc1C(=O)Nc1ccccc1C(=O)O)c1ccccc1F [Compound 35j] | f
O=C(Nc1cc(Cl)ccc1C(=O)Nc1ccccc1C(=O)O)c1ccccc1F [Compound 35f] | t
O=C(Nc1ccccc1C(=O)Nc1ccccc1C(=O)O)c1ccc(F)cc1 [Compound 17j] | t
O=C(Nc1ccc(Cl)cc1C(=O)Nc1ccccc1C(=O)O)c1ccccc1F [Compound 35g] | t
O=C(O)c1ccccc1NC(=O)c1ccccc1NCc1ccccc1 [Compound 17g] | f
O=C(Nc1ccccc1C(=O)Nc1ccccc1C(=O)O)c1ccccc1 | t

* * *

Test system: Ad5
Experiment: microbe, parasite or virus in culture
Assay type: cell-based, human adenovirus
Conditions: unidentified adenovirus, A549, read-out: % Inh. at 5 μM
Quick reference for inhibition at 5 µM among some compounds
endpoint: inhibition at 5 µM (%)

compound | endpoint | outputUnit | dataValue
CC(C)(C)C(=O)Nc1ccccc1C(=O)Nc1ccccc1C(=O)O [Compound 17d] | inhibition at 5 µM | % | 45
O=C(O)c1ccccc1NC(=O)c1ccccc1NC(=O)C1CCCCC1 [Compound 17e] | inhibition at 5 µM | % | 20
O=C(Nc1ccccc1C(=O)Nc1ccccc1C(=O)O)c1ccc(F)cc1 [Compound 17j] | inhibition at 5 µM | % | 76
O=C(Nc1ccccc1C(=O)Nc1cc(F)c(F)cc1C(=O)O)c1ccccc1F [Compound 35e] | inhibition at 5 µM | % | 0
CS(=O)(=O)Nc1ccccc1C(=O)Nc1ccccc1C(=O)O [Compound 17b] | inhibition at 5 µM | % | 0
O=C(Nc1cc(Cl)ccc1C(=O)Nc1ccccc1C(=O)O)c1ccccc1F [Compound 35f] | inhibition at 5 µM | % | 57
O=C(Nc1ccccc1C(=O)Nc1ccccc1C(=O)O)c1ccccc1 [Compound A02] | inhibition at 5 µM | % | 89
O=C(Nc1ccc(Cl)cc1C(=O)Nc1ccccc1C(=O)O)c1ccccc1F [Compound 35g] | inhibition at 5 µM | % | 89
O=C(Cc1ccccc1)Nc1ccccc1C(=O)Nc1ccccc1C(=O)O [Compound 17k] | inhibition at 5 µM | % | 32

* * *

Measured inhibition at 5 µM, listed per entry.
Tested on: Ad5
Test: microbe, parasite or virus in culture
Assay type: cell-based, human adenovirus
Settings: unidentified adenovirus, A549, read-out: % Inh. at 5 μM

compound | inhibition at 5 µM (%)
CC(=O)Nc1ccccc1C(=O)Nc1ccccc1C(=O)O [Compound 17a] | 4
Cc1ccc(S(=O)(=O)Nc2ccccc2C(=O)Nc2ccccc2C(=O)O)cc1 [Compound 17c] | 2
O=C(Cc1ccccc1NC(=O)c1ccccc1)Nc1ccccc1C(=O)O [Compound 28] | 0
O=C(Nc1ccccc1C(=O)Nc1ccccc1C(=O)O)c1cccc(F)c1 [Compound 17i] | 41
O=C(O)Cc1ccccc1NC(=O)c1ccccc1NC(=O)c1ccccc1 [Compound 23] | 0
COc1ccc(C(=O)Nc2ccccc2C(=O)O)c(NC(=O)c2ccccc2F)c1 [Compound 35h] | 92

Values compiled from patent US8993622B2.
